Reference for the values: patent US20240255522A1

- SYSTEM: HLA-DRB1*01:01 MHCII molecule (human)
- PROCEDURE DETAILS: saturation binding ELISA
Where no end group is shown, it is not given here.
READOUT: Kd

BINDER	RESULT
PVSKMRMATPLLMQA (also: biotinylated, position not given here) [biotinylated high affinity huCLIP]	6.09 nM
